Test system: central dopamine (DA) receptors
assay text: Blockade of apomorphine induced stereotypies and hyperactivity in rats
Type: in vivo, Male Sprague-Dawley rats
cond: i.p. 60 min prior to apomorphine hydrochloride 1 mg/kg s.c.; dose reducing number of animals showing hyperactivity by 50% over 60 min observation
Description: The DA receptor blockade as measured by different in vitro anc in vivo techniques correlate roughly with the antipsychotic efficacy. The blockade of the behavioural effects induced by the DA receptor agonist apomorphine is highly correlated to the antipsychotic effect of various neuroleptics. […] The number of animals, displaying hyperactivity caused by apomorphine, was scored. […] EO50's were calculated from log dose-curves from 4-6 levels with 6-8 animals per dose level. […]
Assign ED50 Hyper-activity to each entry below.
Dear colleague, please send the value followed by its unit.

{"columns": ["compound", "ED50 Hyper-activity"],
 "data": [
  ["CN1CCN(C2=Nc3cc(Cl)ccc3Nc3ccccc32)CC1 [Clozapine, reference compound]", "26 µmol/kg"],
  ["CN(C)CCCN1c2ccccc2Sc2ccc(Cl)cc21 [Chlorpromazine, reference compound]", "6.2 µmol/kg"]
]}

Would you be so kind as to report ED50 Hyper-activity for each listed record?
1. CNC1C=CC2(CC1)c1ccccc1CCc1ccc(Cl)cc12 (centres unmarked) [Example 3]
2. OCCN1CCN(C2C=CC3(CC2)c2ccccc2CCc2ccc(Cl)cc23)CC1 (centres unmarked) [Example 4]

1: 15 µmol/kg; 2: 24 µmol/kg

Measured ED50 Hyper-activity of CN(C)C1C=CC2(CC1)c1ccccc1CCc1ccc(Cl)cc12 (centres unmarked) [-N(CH3)2, reference compound] : 6.4 µmol/kg
